quantity-measured: melting point

Sample answers from the record:
N#Cc1nn(-c2c(Cl)cc(C(F)(F)F)cc2Cl)cc1C1CC1(Cl)Cl (configuration not stated) :: 123 to 126 °C
CC(c1oc2ccccc2c(=O)c1-c1cccc(F)c1)n1nc(-c2cc(F)c(O)c(F)c2)c2c(N)ncnc21 (configuration not stated) :: 253 to 257 °C
CCCC(=O)c1ccc(C(CC(=O)Nc2cc(C(N)=O)ccc2C(C)(C)C)CC(C)C)c(OC)c1 (configuration not stated) :: 189 to 190 °C
COc1cc(NC2CCN(Cc3ccccc3)CC2)ccc1C(N)=O :: 155 to 157 °C
Cc1ccc(C(=O)C2=C(O)C(=O)N(c3ncc(S(=O)(=O)c4ccc([N+](=O)[O-])cc4)s3)C2c2cccnc2)cc1 (configuration not stated) :: 211 °C
Brc1ccc(-c2cn([C@H]3CN4CCC3CC4)nn2)cc1 :: 158 °C

Consider the record given below.
IN: Could you tell me which melting point is on file for `Cc1nc2ccccc2c2c1OCCN2` ?
OUT: 203 to 204 °C
